Target: T1, human IL2Ra (human, UniProt P01589 22-240, limits assumed)
T1 construct: bought protein, coated on the plate; also called hIL2RA; IL-2 receptor alpha
T1 sequence (looked up): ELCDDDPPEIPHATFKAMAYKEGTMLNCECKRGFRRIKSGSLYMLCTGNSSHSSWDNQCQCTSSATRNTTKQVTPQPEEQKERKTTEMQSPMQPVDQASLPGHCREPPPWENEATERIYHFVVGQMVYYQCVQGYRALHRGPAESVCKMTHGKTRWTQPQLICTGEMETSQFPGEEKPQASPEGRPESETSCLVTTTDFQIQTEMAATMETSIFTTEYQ
Experiment: IL2Ra direct binding ELISA, signal ratio to isotype control
resultType: hIL2RA ELISA Binding: Ratio to Isotpye (ratio)
Report as a plain number; the unit ratio is understood.

Worked examples follow.
TPP-26303 (antibody, V domains shown) VH: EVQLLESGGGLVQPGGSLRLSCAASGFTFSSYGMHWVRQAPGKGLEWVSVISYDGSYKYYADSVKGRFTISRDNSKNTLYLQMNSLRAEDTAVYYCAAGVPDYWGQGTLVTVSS VL: QSVLTQPPSASGTPGQRVTISCTGSSSNIGAGYDVHWYQQLPGTAPKLLIYSNNERPEGVPDRFSGSKSGTSASLAISGLRSEDEADYYCAAWDDSLNGPVFGGGTKLTVL | 481
TPP-26320 (antibody, V domains shown) VH: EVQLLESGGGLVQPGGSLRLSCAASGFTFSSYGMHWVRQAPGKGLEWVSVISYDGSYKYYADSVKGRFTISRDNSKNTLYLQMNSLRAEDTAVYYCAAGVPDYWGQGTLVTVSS VL: QSVLTQPPSASGTPGQRVTISCTGSSSNIGAGYDVHWYQQLPGTAPKLLIYSNEERPSGVPDRFSGSKSGTSASLAISGLRSEDEADYYCAAWDDSLNGPVFGGGTKLTVL | 260
TPP-26296 (antibody, V domains shown) VH: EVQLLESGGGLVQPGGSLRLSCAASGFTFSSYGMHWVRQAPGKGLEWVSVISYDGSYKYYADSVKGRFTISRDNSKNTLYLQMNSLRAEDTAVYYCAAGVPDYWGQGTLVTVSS VL: QSVLTQPPSASGTPGQRVTISCTGSSSNIGAGYDVHWYQQLPGTAPKLLIYSNNERPSGVPDRFSGSKSGTSASLAISGLRSEDEADYYCAAWDNSLNGPVFGGGTKLTVL | 379

Query: Answer with the recorded hIL2RA ELISA Binding: Ratio to Isotpye of TPP-26309 (antibody, V domains shown) VH: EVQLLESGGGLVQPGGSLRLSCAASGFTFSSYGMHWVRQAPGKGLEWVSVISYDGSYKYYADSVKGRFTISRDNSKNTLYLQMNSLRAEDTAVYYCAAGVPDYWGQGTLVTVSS VL: QSVLTQPPSASGTPGQRVTISCTGSSSNIGAGYDVHWYQQLPGTAPKLLIYSNNERPSGVPDRFSGSKSGTSASLAISGLRSEDEADYYCAAWDFSLNGPVFGGGTKLTVL only.
Reply: 234

Query: Give me measured hIL2RA ELISA Binding: Ratio to Isotpye, please, for this binder: TPP-26321 (antibody, V domains shown) VH: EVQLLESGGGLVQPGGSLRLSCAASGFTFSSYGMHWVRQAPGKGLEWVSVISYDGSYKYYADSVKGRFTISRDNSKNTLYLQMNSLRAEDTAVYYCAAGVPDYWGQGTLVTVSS VL: QSVLTQPPSASGTPGQRVTISCTGSSSNIGAGYDVHWYQQLPGTAPKLLIYSNNERPSGVPDRFSGSKSGTSASLAISGLRSEDEADYYCAAWDLSLNGPVFGGGTKLTVL
Reply: 182

Query: Identify the reported hIL2RA ELISA Binding: Ratio to Isotpye for the following entry. TPP-26325 (antibody, V domains shown) VH: EVQLLESGGGLVQPGGSLRLSCAASGFTFSWYGMHWVRQAPGKGLEWVSVISYDGSYKYYADSVKGRFTISRDNSKNTLYLQMNSLRAEDTAVYYCAAGVPDYWGQGTLVTVSS VL: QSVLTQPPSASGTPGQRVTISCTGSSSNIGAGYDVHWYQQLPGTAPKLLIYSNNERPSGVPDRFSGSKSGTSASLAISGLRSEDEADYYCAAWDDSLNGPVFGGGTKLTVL
Reply: 542

Query: Using the record for TPP-26307 (antibody, V domains shown) VH: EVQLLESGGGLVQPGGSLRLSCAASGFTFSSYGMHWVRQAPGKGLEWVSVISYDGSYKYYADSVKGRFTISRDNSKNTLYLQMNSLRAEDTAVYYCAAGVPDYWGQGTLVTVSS VL: QSVLTQPPSASGTPGQRVTISCTGSSSNIGAGYDVHWYQQLPGTAPKLLIYSNNERPSGVPDRFSGSKSGTSASLAISGLRSEDEADYYCAAWDISLNGPVFGGGTKLTVL , state its measured hIL2RA ELISA Binding: Ratio to Isotpye.
Reply: 176

Query: Indicate the recorded hIL2RA ELISA Binding: Ratio to Isotpye value for this binder: TPP-26306 (antibody, V domains shown) VH: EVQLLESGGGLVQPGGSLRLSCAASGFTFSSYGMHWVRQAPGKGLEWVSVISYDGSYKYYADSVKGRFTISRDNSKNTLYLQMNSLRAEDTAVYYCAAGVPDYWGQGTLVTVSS VL: QSVLTQPPSASGTPGQRVTISCTGSSSNIGAGYDVHWYQQLPGTAPKLLIYSNNERPSGVPDRFSGSKSGTSASLAISGLRSEDEADYYCAAWDQSLNGPVFGGGTKLTVL
Reply: 232

Query: Given TPP-26323 (antibody, V domains shown) VH: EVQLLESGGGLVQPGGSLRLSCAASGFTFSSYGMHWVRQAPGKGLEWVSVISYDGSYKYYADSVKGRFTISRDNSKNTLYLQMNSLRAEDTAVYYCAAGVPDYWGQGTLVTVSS VL: QSVLTQPPSASGTPGQRVTISCTGSSSNIGAGYDVHWYQQLPGTAPKLLIYSNNERPSGVPDRFSGSKSGTSASLAISGLRSEDEADYYCAAWDGSLNGPVFGGGTKLTVL , respond with its hIL2RA ELISA Binding: Ratio to Isotpye.
Reply: 256

Query: Provide only the value of recorded hIL2RA ELISA Binding: Ratio to Isotpye for TPP-26302 (antibody, V domains shown) VH: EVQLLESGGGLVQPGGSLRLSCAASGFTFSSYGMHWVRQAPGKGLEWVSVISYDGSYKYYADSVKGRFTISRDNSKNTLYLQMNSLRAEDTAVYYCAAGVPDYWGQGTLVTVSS VL: QSVLTQPPSASGTPGQRVTISCTGSSSNIGAGYDVHWYQQLPGTAPKLLIYSNNERPSGVPDRFSGSKSGTSASLAISGLRSEDEADYYCSAWDDSLNGPVFGGGTKLTVL
Reply: 522

Attribution: patent US20240317847A1
